target-system: ROMK (Kir1.1) channel (Homo sapiens, UniProt P48048)
Sequence (P48048 whole entry): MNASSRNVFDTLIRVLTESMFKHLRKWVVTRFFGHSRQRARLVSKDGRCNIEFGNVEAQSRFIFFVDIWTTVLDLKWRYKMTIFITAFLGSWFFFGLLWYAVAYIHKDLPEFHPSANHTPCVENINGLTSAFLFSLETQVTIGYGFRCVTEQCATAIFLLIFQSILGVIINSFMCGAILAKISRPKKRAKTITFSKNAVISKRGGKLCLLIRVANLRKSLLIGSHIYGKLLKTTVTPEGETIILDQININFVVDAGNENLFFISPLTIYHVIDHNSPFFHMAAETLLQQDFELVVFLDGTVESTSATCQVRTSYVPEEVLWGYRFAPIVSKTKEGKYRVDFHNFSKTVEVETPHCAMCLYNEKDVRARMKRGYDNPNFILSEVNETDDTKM
test-description: Thallium Flux Assay
Format: cell-based
measured-attribute: pIC50
pIC50 is defined as minus the log10 of a concentration measured in mol/L.

For `Cc1c(CCN2CCC3(CC2)CCN(C2=CC(=O)OC2)CC3)ccc2c1COC2=O` , write its pIC50. 7.51

For `Cc1cc(-n2cnnn2)ccc1[C@@H](O)CN1CCC2(CC1)CCN(C1=CC(=O)CC1)CC2` , write its pIC50. 6.75

For `Cc1cc(-n2cnnn2)ccc1[C@@H](O)CN1CCC2(CC1)CCN(C1=CC(=O)OC1)CC2` , write its pIC50. 7.40

For `Cc1c(N2CCC3(CCN(C[C@@H](O)c4ccc(-n5cnnn5)nc4)CC3)CC2)c(=O)c1=O` , write its pIC50. 7.47

For `O=C1C=C(N2CCC3(CCN(C[C@H](O)c4ccc(-n5cnnn5)nc4)CC3)CC2)CO1` , write its pIC50. 7.80

For `CC1=C(N2CCC3(CCN(C[C@H](O)c4ccc(-n5cnnn5)nc4C)CC3)CC2)CCC1=O` , write its pIC50. 7.16

For `CC1=C(N2CCC3(CCN(C[C@@H](O)c4ccc(-n5cnnn5)cc4C)CC3)CC2)COC1=O` , write its pIC50. 7.96

For `O=C1C=C(N2CCC3(CCN(C[C@H](O)c4ccc(-n5cnnn5)cc4F)CC3)CC2)CO1` , write its pIC50. 7.77

For `CC1=C(N2CCC3(CCN(C[C@H](O)c4ccc(-n5cnnn5)cn4)CC3)CC2)COC1=O` , write its pIC50. 7.15

For `CC1=C(N2CCC3(CCN(C[C@H](O)c4ccc5c(c4C)COC5=O)CC3)[C@@H](F)C2)COC1=O` , write its pIC50. 6.56

For `Cc1c(N2CCC3(CCN(C[C@H](O)c4ccc(-n5cnnn5)nc4)CC3)CC2)c(=O)c1=O` , write its pIC50. 7.82

For `O=C1C=C(N2CCC3(CCN(C[C@@H](O)c4ccc(-n5cnnn5)cc4F)CC3)CC2)CO1` , write its pIC50. 7.55

For `CC1=C(N2CCC3(CCN(C[C@H](O)c4ccc5c(c4C)COC5=O)CC3)CC2)CCC1=O` , write its pIC50. 6.96

For `CC1=C(N2CCC3(CCN(C[C@@H](O)c4ccnc(-n5cnnn5)c4)CC3)CC2)COC1=O` , write its pIC50. 7.41

For `CO[C@@H]1CN(C2=C(C)C(=O)OC2)CCC12CCN(C[C@H](O)c1ccc3c(c1C)COC3=O)CC2` , write its pIC50. 7.28

For `CC1=C(N2CCC3(CCN(C[C@@H](O)c4cncc(-n5cnnn5)c4)CC3)CC2)COC1=O` , write its pIC50. 6.93
